# System: 786-0 renal
# measurement-description: NCI-60 one-dose screen, 48 h (100 = growth as untreated, 0 = no growth, -100 = all killed)
# reported-conditions: 10 µM unless noted
About 83,000 compounds went through this panel and 20% of them were active in at least one assay; those are over-represented in the sample as a whole. Calls of active or inactive are those of the source. The calls were made as follows: active = growth percent below 10; inactive = the rest.
Entries annotated with measured growth

Reference set (3 entries):
{"compound": "COC12CC3C4=CCOC5CC(=O)N6c7ccccc7C1(CCN2C4)C6C53 (stereo not given)", "target": "786-0 renal", "result": "99.1% (inactive)"}
{"compound": "CC[C@H](CC[C@@H](C)[C@H]1CC[C@H]2[C@@H]3CC[C@H]4C[C@]5(CC[C@]4(C)[C@H]3CC[C@]12C)OO[C@](C)(C(F)(F)F)O5)C(C)C", "target": "786-0 renal", "result": "97% (inactive)"}
{"compound": "CC[C@@H](C)C(=O)O[C@H]1[C@H](O)[C@H]2[C@@H](CN3C[C@@H](C)CC[C@H]3[C@@]2(C)O)[C@@H]2C[C@]34O[C@]5(O)[C@@H](OC(=O)[C@@](C)(O)CC)CC[C@@]3(C)[C@@H]5[C@@H](OC(C)=O)[C@@H](OC(C)=O)[C@H]4[C@@]21O", "target": "786-0 renal", "result": "101% (inactive)"}

Exercise: Print 786-0 renal growth for CCC(=O)C(CC(C)N1CCCCCC1)(c1ccccc1)c1ccccc1 (stereo not given) .
Solution: 87.4% (inactive)

Exercise: Print 786-0 renal growth for C[Se]/C=C1/C(=O)N(c2c(Cl)cccc2Cl)c2ccccc21 .
Solution: 51.1% (inactive)

====

# Tested on: MDA-MB-231 breast
# measurement-description: NCI-60 one-dose screen, 48 h (100 = growth as untreated, 0 = no growth, -100 = all killed)
# reported-conditions: 10 µM unless noted
About 83,000 compounds went through this panel and 20% of them were active in at least one assay; those are over-represented in the sample as a whole.
Entries annotated with measured growth
Quick reminder: number only, in %, skip the unit.

Reference set (4 entries):
{"compound": "CC/C(=C(\\c1ccc(OCCN2CCOCC2)cc1)c1ccc(OC(=O)Cc2ccccc2)cc1)c1ccc(Cl)cc1", "growth [%]": 109}
{"compound": "COC(=O)C12C3C4C1C1C2C3C41NC(=O)c1csc([C@@H](C[C@H](C(C)C)N(C)C(=O)[C@@H](NC(=O)[C@H]2CCCCN2C)C2CC2)OC(C)=O)n1 (stereo not given in full)", "growth [%]": 4.12}
{"compound": "N#CC(C#N)=C(C#N)C#N", "growth [%]": 106}
{"compound": "O=C1C=C(N2CC2)c2ccccc2C1=O", "growth [%]": 88.8}

Turning now to a further compound:
Exercise: Identify measured growth associated with O=C(O)C(Br)CBr (stereo not given)
Solution: 126

====

# System: K-562 leukemia
# measurement-description: NCI-60 one-dose screen, 48 h
# reported-conditions: 10 µM unless noted
# Description: Cells are grown in 96 well plates and exposed to the test compound for 48 hours. Compounds are tested at a single concentration, which is 10^-5 M for most compounds. The reported endpoint is percent growth (GI% or GIPRCNT), where numbers from 0 - 100% represent growth inhibition, and numbers from -100% - 0 represent cell death. For example, a value of 40 represents 60% growth inhibition. A value of 0 means no net growth occurred over the course of the experiment. […]
About 83,000 compounds went through this panel and 20% of them were active in at least one assay; those are over-represented in the sample as a whole. The source made the active and inactive calls. Rule for the calls: active = growth percent below 10; inactive = the rest.
A correct response names exactly one class from TRUE for active, FALSE for inactive

{"molecule": "Cn1cc(-c2csc(-c3cn(CCCCN4CCOCC4)c4ccc(F)cc34)n2)c2cccnc21", "group": "TRUE"}
{"molecule": "N#Cc1ccc(Cl)cc1", "group": "FALSE"}
{"molecule": "Cc1ccc(P(=O)(O)O)cc1", "group": "FALSE"}
{"molecule": "Cc1ccccc1-n1c(/C=C\\c2ccccn2)nc2ccccc2c1=O", "group": "FALSE"}
{"molecule": "O=C1CN2CCC1CC2", "group": "FALSE"}

Exercise: Status in this test for COc1cc(-c2ccc(N)c(OC)c2)ccc1N ?
Solution: FALSE
